Target: UniProt:Q9NRG4
Sequence (Q9NRG4 whole entry): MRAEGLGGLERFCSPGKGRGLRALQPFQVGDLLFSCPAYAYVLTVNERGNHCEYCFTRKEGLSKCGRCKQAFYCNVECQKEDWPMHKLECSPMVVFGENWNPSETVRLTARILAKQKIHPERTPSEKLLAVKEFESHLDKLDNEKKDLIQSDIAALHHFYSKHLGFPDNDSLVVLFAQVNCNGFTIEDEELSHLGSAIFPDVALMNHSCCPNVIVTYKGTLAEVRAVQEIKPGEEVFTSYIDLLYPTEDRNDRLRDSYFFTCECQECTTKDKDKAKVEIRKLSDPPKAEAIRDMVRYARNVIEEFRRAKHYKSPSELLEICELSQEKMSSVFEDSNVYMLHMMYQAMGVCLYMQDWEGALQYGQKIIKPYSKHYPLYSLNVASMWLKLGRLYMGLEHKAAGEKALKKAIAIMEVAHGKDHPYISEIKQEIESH
Assay: SMYD2 biochemical assay (SMYD2 enzyme assay on peptide substrate, 3H-SAM Flashplate)
Conditions: read-out: SMYD2 Biochem IC50; IC50 values are an average of n = 1 to n = 50
reported.endpoint: IC50 (nM)

-- ask Consider the compound CC(c1nccs1)N1CC(NC(=O)c2cn(C3CC3)nn2)C1 (stereo not drawn) . State its measured IC50.
-- reply 30700

P = CC(C)N1CCC(NC(=O)c2cc(C3CC3)cnn2)CC1
Q = CC(c1cccc(Oc2ccccc2)c1)N1CC(NC(=O)c2cn(C3CC3)nn2)C1 (stereo not drawn)
R = O=C(NC1CN(Cc2ccc(Cn3cccn3)cc2)C1)c1cn(C2CC2)nn1
-- ask Please list these in order of increasing IC50. Thank you! Response field: labels, in requested order.
-- reply Q, R, P

###

Biological target: SMYD3 (Homo sapiens (Human), UniProt Q9H7B4)
Sequence (Q9H7B4 whole entry): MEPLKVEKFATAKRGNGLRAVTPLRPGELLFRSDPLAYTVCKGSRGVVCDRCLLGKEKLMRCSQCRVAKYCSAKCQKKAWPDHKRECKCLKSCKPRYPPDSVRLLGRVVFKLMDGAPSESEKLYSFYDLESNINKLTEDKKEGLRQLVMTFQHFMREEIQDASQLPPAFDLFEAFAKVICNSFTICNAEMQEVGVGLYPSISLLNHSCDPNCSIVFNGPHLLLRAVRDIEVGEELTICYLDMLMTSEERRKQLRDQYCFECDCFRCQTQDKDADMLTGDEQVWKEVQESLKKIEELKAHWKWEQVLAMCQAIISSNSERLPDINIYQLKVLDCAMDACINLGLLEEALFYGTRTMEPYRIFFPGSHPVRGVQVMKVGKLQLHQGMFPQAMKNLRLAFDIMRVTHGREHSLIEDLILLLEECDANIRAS
Assay: SMYD3 biochemical assay (SMYD3 enzyme assay on MEKK2 protein substrate, 3H-SAM scintillation proximity assay)
Conditions: read-out: SMYD3 Biochem IC50
pIC50: −log10 of the molar value.
Quick reference for pIC50 among some molecules

-- ask Give a short answer stating reported pIC50 for CC(NC(=O)c1cncc(O)c1)C1CCN(C(=O)[C@H](C)N)CC1 (some centres unmarked) [compound 513] .
-- reply < 4.30

-- ask Give me measured pIC50, please, for this molecule: N[C@H]1CC[C@H](NC(=O)c2ccnc(O)c2)CC1 [compound 292]
-- reply < 4.00

-- ask Fill in reported pIC50 for this entry: CC(NC(=O)c1cncs1)C1CCN(C(=O)[C@H](C)N)CC1 (some centres unmarked) [compound 309]
-- reply < 4.00

-- ask Check the records and state pIC50 for NCCC(=O)N[C@H]1CC[C@H](NC(=O)c2cc3cccc(O)c3cc2O)CC1 [compound 479]
-- reply 5.30

Others:
-- ask Look up and report measured pIC50 for this entry: CC(NC(=O)c1ccnc(O)c1)C1CCN(C(=O)[C@H](C)N)CC1 (some centres unmarked) [compound 249]
-- reply 4.18

-- ask Identify the reported pIC50 for the following entry. CC(NC(=O)c1ncccc1O)C1CCN(C(=O)[C@H](C)N)CC1 (some centres unmarked) [compound 511]
-- reply < 4.30

###

The entries below are paired with their reported IC50.
Target: SMYD3 (Homo sapiens (Human), UniProt Q9H7B4)
Experiment: SMYD3 biochemical assay (SMYD3 enzyme assay on MEKK2 protein substrate, 3H-SAM scintillation proximity assay)
Settings: read-out: SMYD3 Biochem IC50

Study these solved cases before continuing.
-- ask Give the measured IC50 for CC(NC(=O)c1ccnc(N)c1)C1CCN(C(=O)[C@H](C)N)CC1 (stereo partly drawn) [compound 187]
-- reply > 100 µM

-- ask Give the measured IC50 for NCCC(=O)N[C@H]1CC[C@H](NC(=O)c2cnc3ccccc3n2)CC1 [compound 373]
-- reply > 100 µM

-- ask Answer with reported IC50 of CC(NC(=O)c1noc(C2CC2)n1)C1CCN(C(=O)[C@H](C)N)CC1 (stereo partly drawn) [compound 464]
-- reply 32.7 µM

-- ask Read the entry NCCC(=O)N[C@H]1CC[C@H](C(=O)Nc2ccc3c(c2)CC(=O)N3)CC1 [compound 467] and write its reported IC50.
-- reply 4.46 µM

-- ask For the molecule CC(NC(=O)c1ccccn1)C1CCN(C(=O)[C@H](C)N)CC1 (stereo partly drawn) [compound 296] , give its measured IC50 value.
-- reply > 100 µM

-- ask Annotate the molecule CC(NC(=O)c1ccc2[nH]ccc2c1)C1CCN(C(=O)[C@H](C)N)CC1 (stereo partly drawn) [compound 283] with its measured IC50.
-- reply > 100 µM

Others:
-- ask Return IC50 (reported value) for this molecule: N[C@H]1CC[C@H](NC(=O)c2ccc(O)nc2)CC1 [compound 295]
-- reply > 100 µM

-- ask Annotate the molecule N[C@H]1CC[C@H](NC(=O)c2ccc3nonc3c2)CC1 [compound 287] with its measured IC50.
-- reply > 100 µM

-- ask Answer with the recorded IC50 for the molecule listed here: CC(NC(=O)c1ccc2c(c1)OC(F)(F)O2)C1CCN(C(=O)[C@H](C)N)CC1 (stereo partly drawn) [compound 284]
-- reply > 100 µM

-- ask Consider the molecule Cc1cnc(C(=O)NC(C)C2CCN(C(=O)[C@H](C)N)CC2)cn1 (stereo partly drawn) [compound 185] and give its recorded IC50.
-- reply > 100 µM
